# Measurement Context: buffer; pH 7.4; 200.0 µM
For each record, write down the corresponding solubility kinetic.
Report the figure in µg/mL without appending any unit label.

Task: Entry `Cc1cccnc1NC(=O)Cn1c(=O)oc2ccccc21` : reported solubility kinetic = ?
Output: 41.2

Task: Entry `CN(C)Cc1ccccc1Sc1ccc2c(c1)CCCC2.O=C(O)C(=O)O` : reported solubility kinetic = ?
Output: 5.5

Task: Entry `Cc1[nH]c2ccccc2c1C(=O)C(=O)NCCc1c[nH]c2ccccc12` : reported solubility kinetic = ?
Output: 2.6

Task: Entry `NS(=O)(=O)c1cccc(NC(=O)CCCC2CCCCC2)c1` : reported solubility kinetic = ?
Output: 8.8

Task: Entry `COc1ccc(C(=O)n2c(N)nc3ccccc32)cc1OC.Cl` : reported solubility kinetic = ?
Output: 10.9

Where do these numbers come from? They come from PubChem BioAssay AID1996.
